# PROTOCOL: qHTS for Inhibitors of WRN Helicase: Thiazole Orange DNA Binding Counterscreen (AID 720499);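 note: drop in dye fluorescence marks compound binding to DNA; nearly all actives have a fitted effect of over 60% in size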
# PROTOCOL_CONDITIONS: thiazole orange DNA binding displacement, fluorescence; series mostly up to 57.1 µM
This is one part of the list. Results filed as inconclusive are left out. Active and inactive are the calls of the source. Calls come from the whole dose curve; as a rule, active = well fitted inhibition curve with a large enough effect; inconclusive = small, poorly fitted or top-dose-only effect; inactive = no such curve, though single readings can be large or run the other way.
Respond only with the outcome that fits, drawn from y (active), n (inactive)

O=c1[nH]c2ccccc2n2c(-c3ccccc3)nnc12 = n
O=C(Nc1ccccc1)c1nnsc1S(=O)(=O)c1ccc(Cl)cc1 = n
CCN(CC)CCOc1ccc2c(c1)C(=NNC(=O)c1ccccn1)c1cc(OCCN(CC)CC)ccc1-2 = y
CCc1ccc2nc3sc(C(=O)Nc4nnc(CC)s4)c(N)c3cc2c1 = n
Cc1ccc(-c2nc(SCc3ccc(Br)cc3)n3[nH]c(=O)cc3n2)cc1 = n

Each compound tested received a call. Report the one for CN1CCN(S(=O)(=O)c2cccc(C(=O)Nc3sccc3C#N)c2)CC1 . n

Each compound tested received a call. Report the one for COc1cccc2c1C(=O)c1c(O)c3c(c(O)c1C2=O)CC(O)(C(C)=NNC(=O)c1ccc(Cl)c(Cl)c1)CC3OC1CC(N)C(O)C(C)O1 (configuration not stated) . n

Each compound tested received a call. Report the one for COc1ccc(Cl)cc1-c1cc(C(=O)Nc2cc(OC)c(OC)c(OC)c2)[nH]n1 . n

Each compound tested received a call. Report the one for CN(C)c1nc(Nc2ccc(Cl)c(Cl)c2)nc(N(C)C)n1 . n

====

# TGT: Cytochrome P450 3A4 (Homo sapiens) (UniProt P08684)
# Sequence (P08684 whole entry, looked up): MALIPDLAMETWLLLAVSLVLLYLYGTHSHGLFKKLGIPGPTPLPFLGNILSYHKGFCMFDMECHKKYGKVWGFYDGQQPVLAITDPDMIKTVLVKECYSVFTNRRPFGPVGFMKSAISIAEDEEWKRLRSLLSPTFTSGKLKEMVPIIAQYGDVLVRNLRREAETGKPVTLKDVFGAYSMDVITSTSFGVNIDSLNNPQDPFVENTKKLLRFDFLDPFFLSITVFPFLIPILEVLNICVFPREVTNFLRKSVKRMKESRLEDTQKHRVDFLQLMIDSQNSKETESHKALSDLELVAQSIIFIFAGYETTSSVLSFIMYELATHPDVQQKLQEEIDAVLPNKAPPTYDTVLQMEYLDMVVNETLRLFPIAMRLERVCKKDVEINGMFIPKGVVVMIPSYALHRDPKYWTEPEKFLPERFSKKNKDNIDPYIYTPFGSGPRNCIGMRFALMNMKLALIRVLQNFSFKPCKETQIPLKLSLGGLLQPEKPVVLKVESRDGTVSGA
# PROTOCOL: qHTS Assay for Activators of Cytochrome P450 3A4 (AID 885); note: nearly all actives have a fitted effect of over 65% in size
# PROTOCOL_CONDITIONS: recombinant CYP3A4, Luciferin-PPXE luminescence, 60 min; series mostly up to 57.1 µM
Active and inactive are the calls of the source. Calls come from the whole dose curve; as a rule, active = well fitted activation curve with a large enough effect; inconclusive = small, poorly fitted or top-dose-only effect; inactive = no such curve, though single readings can be large or run the other way.
OUTCOME_MEASURE: activity change, positive = activation

Before answering, review these 8 worked examples.
COC(=O)c1ccc(C(NC(=O)OCc2ccccc2)/C(F)=C/[C@@H](C)C(=O)NCc2nc3ccccc3s2)cc1 (stereo partly specified) = inactive
COc1ccc(OCC2CC3C(CCC(C)C3c3ccc(Br)cc3)C(=O)O2)cc1 (stereo unspecified) = -84.4% [at 11.4 µM] (inactive)
COc1cc2c(C(=O)c3ccccc3)c3c4c(cc(OC)c(OC)c4c2cc1OC)CCN3C = inactive
COC(=O)CNC(=O)[C@@]1(C)C=C[C@@H](Cc2ccccc2)N1C(=O)OC = inactive
COc1ccc(O[C@H]2C=C[C@@H](c3ccccc3)O[C@H]2CO/N=C(/C)CCC(=O)OC[C@@H]2O[C@H](C#Cc3ccccc3)C=C[C@@H]2Oc2ccc(C)cc2)cc1 = -52.7% [at 11.4 µM] (inactive)
O=C1[C@@H]2[C@H]3[C@H](O)[C@H](O)C/C(=N/OC[C@@H](O)COCc4ccco4)[C@@H]3CC[C@H]2C(=O)N1c1ccc(F)cc1F = -48.8% [at 11.4 µM] (inactive)
C[C@H]1C2=C3C(CC[C@H]4C(OCc5ccc(F)cc5C(F)(F)F)OC[C@](C)([C@@H]34)N(C(=O)OC(C)(C)C)C2)C2COC(=O)OCC21 (stereo partly specified) = inactive
COc1ccc(C#CC2C=CC(OC(C)=O)C(COC(C)=O)O2)cc1 (stereo unspecified) = -88.8% [at 11.4 µM] (inactive)

API: value(readout=activity change, positive = activation, system=Cytochrome P450 3A4 (Homo sapiens) (UniProt P08684)) for record COC(=O)c1ccc(C(NC(=O)OCc2ccccc2)/C(C)=C/[C@@H](C)C(=O)NCCc2c[nH]c3ccc(OC)cc23)cc1 (stereo partly specified) inactive

API: value(readout=activity change, positive = activation, system=Cytochrome P450 3A4 (Homo sapiens) (UniProt P08684)) for record Cn1c(N)c(C(=O)COC(=O)c2cc(-c3ccco3)nc3ccccc23)c(=O)n(Cc2ccccc2)c1=O inactive

====

# TGT: Mitogen-activated protein kinase 10 (Mus musculus) (UniProt Q61831)
# PROTOCOL: JNK3 AlphaScreen Assay (AID 530);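 note: kinase came from lysate of stimulated human HepG2 cells; signal reports phosphorylation of biotinylated GST-cJun 1-79 at Ser73 with 10 µM ATP; % is set by controls: 0 for no effect and ±100 for the full control effect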
# PROTOCOL_CONDITIONS: JNK3 lysate, c-Jun phosphorylation; series mostly up to 57.1 µM
# Source text: NIH Chemical Genomics Center [NCGC] NIH Molecular Libraries Screening Centers Network [MLSCN] The c-jun N-terminal kinase (JNK) family are serine/threonine protein kinases that phosphorylate c-jun, a component of the transcription factor protein-1 (AP-1). […] A homogeneous AlphaScreen is developed to measure the activity of JNK3. […] The phosphorylation of a biotinylated c-jun substrate by JNK3 can be detected with an antibody raised against phosphorylated c-jun. […]
Records with an inconclusive call do not appear. The source made the active and inactive calls. The call rests on the fitted dose curve; in most records, active means well fitted curve in either direction with a large enough effect (not every such curve was filed as active); inconclusive means small, poorly fitted or top-dose-only effect, or another doubt; inactive means flat fitted curve, though single readings scatter.
OUTCOME_MEASURE: outcome

CCCCCCN(C(=O)CCCCCN1C(=O)NC(c2ccccc2-c2ccccc2)C(C(=O)OCc2ccccc2)=C1C)C(C(=O)NCCCC)c1ccc(OCC(=O)OC)c(C(=O)OC)c1 (stereo not drawn) = inactive
COC(=O)CNC(=O)C1(C)C=CC2(CCCCC2)N1C(=O)OC (stereo not drawn) = inactive
C/C(=C\C1CCCCC1)C(NC(=O)c1cccnc1)c1ccc(-c2ccccc2)cc1 (stereo not drawn) = inactive
COC(=O)[C@@]1(Cc2ccc(F)cc2)[C@H]2c3cc(C(=O)N4CCCC4)n(Cc4ccc(S(C)(=O)=O)cc4)c3C[C@H]2CN1C(=O)c1ccccc1 = inactive
COC(=O)[C@@]1(Cc2ccccc2)[C@H]2c3cc(C(=O)N(C)C)n(CCF)c3C[C@H]2CN1C(=O)c1ccccc1 = inactive

API: value(readout=outcome, system=Mitogen-activated protein kinase 10 (Mus musculus) (UniProt Q61831)) for record Cc1cc(CNC(=O)[C@H](C)[C@@H]2C[C@@]2(C)[C@@H](NC(=O)OCc2ccccc2)c2ccccc2)nn1C inactive

API: value(readout=outcome, system=Mitogen-activated protein kinase 10 (Mus musculus) (UniProt Q61831)) for record CN(C)C(=O)[C@H]1C[C@@H]1[C@H](NC(=O)OCc1ccccc1)c1ccccc1 inactive

API: value(readout=outcome, system=Mitogen-activated protein kinase 10 (Mus musculus) (UniProt Q61831)) for record CCCCCCN(C(=O)CCCCCN1C(=O)NC(c2ccc3ccccc3c2)C(C(=O)OCc2ccccc2)=C1C)C(C(=O)NCCCC)c1ccc(OCC(=O)OC)c(C(=O)OC)c1 (stereo not drawn) inactive

API: value(readout=outcome, system=Mitogen-activated protein kinase 10 (Mus musculus) (UniProt Q61831)) for record COC(=O)N1[C@H](C)C=C[C@]1(Cc1ccccc1)C(=O)O inactive

API: value(readout=outcome, system=Mitogen-activated protein kinase 10 (Mus musculus) (UniProt Q61831)) for record CC1=C(C(=O)OCc2ccccc2)C(c2ccc(C3CCCCC3)cc2)NC(=O)N1CCCCCC(=O)O (stereo not drawn) inactive

API: value(readout=outcome, system=Mitogen-activated protein kinase 10 (Mus musculus) (UniProt Q61831)) for record C[C@@H](C(=O)NCc1ccccc1)[C@@H]1C[C@@]1(C)[C@@H](NC(=O)OCc1ccccc1)c1ccccc1 inactive

API: value(readout=outcome, system=Mitogen-activated protein kinase 10 (Mus musculus) (UniProt Q61831)) for record CCCCCCN(C(=O)CCCCCN1C(=O)NC(c2ccc(-c3ccccc3)cc2)C(C(=O)OCc2ccccc2)=C1C)C(C(=O)NCCCC)c1ccc(OCC(=O)OC)cc1 (stereo not drawn) inactive

API: value(readout=outcome, system=Mitogen-activated protein kinase 10 (Mus musculus) (UniProt Q61831)) for record CNC(=O)[C@H](C)/C=C/C(NC(=O)OCc1ccccc1)c1ccc(C(=O)OC)cc1 (stereo partly drawn) inactive

API: value(readout=outcome, system=Mitogen-activated protein kinase 10 (Mus musculus) (UniProt Q61831)) for record CC(=O)N1CC=CC1(CC(C)C)C(=O)NCc1ccccn1 (stereo not drawn) inactive

API: value(readout=outcome, system=Mitogen-activated protein kinase 10 (Mus musculus) (UniProt Q61831)) for record COC(=O)c1ccc(C(NC(=O)OCc2ccccc2)/C(=C/[C@@H](C)C(=O)NCc2cc(F)cc(F)c2)c2cccnc2)cc1 (stereo partly drawn) inactive

API: value(readout=outcome, system=Mitogen-activated protein kinase 10 (Mus musculus) (UniProt Q61831)) for record COC(=O)c1ccc(C(NC(=O)OCc2ccccc2)/C(=C/[C@@H](C)C(=O)Nc2ccccc2)c2cccnc2)cc1 (stereo partly drawn) inactive

API: value(readout=outcome, system=Mitogen-activated protein kinase 10 (Mus musculus) (UniProt Q61831)) for record CC(=O)N1[C@H](C)C=C[C@]1(Cc1ccccc1)C(=O)NCCN1CCOCC1 inactive

====

# Tested on: 7G8
# PROTOCOL: qHTS profiling for inhibitors of Plasmodium falciparum proliferation (AID 504749);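 note: 0% = DMSO vehicle and full inhibition = artemisinin control; nearly all actives have a fitted effect of over 60% in size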
# PROTOCOL_CONDITIONS: P. falciparum in erythrocytes, SYBR Green DNA, 72 h; series mostly up to 28.7 µM
Records with an inconclusive call do not appear. The source made the active and inactive calls. Calls come from the whole dose curve; as a rule, active = well fitted inhibition curve with a large enough effect; inconclusive = small, poorly fitted or top-dose-only effect; inactive = flat fitted curve, though single readings scatter. Numbered stars: 1 amine (or outer) side, 2 acyl side, 3 side chain; on linkers, the order of the positions; unused ones are H or OH. Bridge positions count the residues as written; N and C are the ends. Square brackets hold non-standard residues; d marks the D form. Peptide text beside a SMILES is read from it. * marks the point of attachment. ξ: configuration not given here. ΔAla(Z-3-ureido) = NC(=O)N/C=C(\N)C(=O)O; X2 = NC1=NC(O)CC(C(N[*:1])C(=O)[*:2])N1; X1 = NC1=NCCC(C(N[*:1])C(=O)[*:2])N1; ξβ3hOrn = NCCCC(N)CC(=O)*; Dap = NC[CH](N)C(=O)O
OUTCOME_MEASURE: outcome

CCC(C)C1NC(=O)C(Cc2ccc(O)cc2)NC(=O)C(N)CSSCC(C(=O)N2CCCC2C(=O)NC(CC(C)C)C(=O)NCC(N)=O)NC(=O)C(CC(N)=O)NC(=O)C(CCC(N)=O)NC1=O (stereo not given) = inactive
CC(=O)OCC1=C(C(=O)O)N2C(=O)C(NC(=O)Cc3ccccc3)C2SC1 (stereo not given) = inactive
CC(C)CC(NC(=O)C(COC(C)(C)C)NC(=O)C(Cc1ccc(O)cc1)NC(=O)C(CO)NC(=O)C(Cc1c[nH]c2ccccc12)NC(=O)C(Cc1cnc[nH]1)NC(=O)C1CCC(=O)N1)C(=O)NC(CCCN=C(N)N)C(=O)N1CCCC1C(=O)NNC(N)=O (stereo not given) = inactive
NCCCC(N)CC(=O)NCC1NC(=O)C(CO)NC(=O)C(N)CNC(=O)C(C2CCN=C(N)N2)NC(=O)/C(=C/NC(N)=O)NC1=O (stereo not drawn) (H-[Dap]S[Dap](ξβ3hOrn)[ΔAla(Z-3-ureido)][X1]; lactam 1-C; configuration not given here) = inactive

Next:
Give the measured outcome of NCCCC(N)CC(=O)NC1CNC(=O)C(C2CC(O)N=C(N)N2)NC(=O)/C(=C/NC(N)=O)NC(=O)C(CO)NC(=O)C(CO)NC1=O (stereo not drawn) (ξβ3hOrn-[Dap]SS[ΔAla(Z-3-ureido)][X2]; lactam 1-C; configuration not given here) . inactive
